- measured-on: hA2A receptor (Homo sapiens (Human))
- Sequence (P29274 whole entry): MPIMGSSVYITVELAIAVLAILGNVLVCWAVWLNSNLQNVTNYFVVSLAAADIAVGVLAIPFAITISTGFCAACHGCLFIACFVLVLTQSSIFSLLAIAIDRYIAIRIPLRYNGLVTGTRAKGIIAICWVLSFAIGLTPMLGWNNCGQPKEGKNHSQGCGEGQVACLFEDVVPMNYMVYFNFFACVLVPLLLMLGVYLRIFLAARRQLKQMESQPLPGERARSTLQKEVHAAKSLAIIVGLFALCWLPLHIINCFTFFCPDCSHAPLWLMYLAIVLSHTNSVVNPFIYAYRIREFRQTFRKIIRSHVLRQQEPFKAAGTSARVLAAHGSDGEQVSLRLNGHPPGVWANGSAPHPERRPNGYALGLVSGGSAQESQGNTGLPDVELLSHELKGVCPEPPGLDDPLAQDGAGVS
- assay-info: binding affinity IC50 to hA2A receptor (SPA beads, Effect Embodiment 1)
- assay-setup: A2A receptor membrane, 1 hour at room temperature, read-out: IC50 values of compound 1 binding affinity to hA2A receptor
metric-name: pIC50
Quick note: pIC50 values are minus log10 of concentrations in mol/L.

In: Look up pIC50: Nc1nc(-c2ccco2)c2c(n1)C(Cc1ccccc1F)OC2=O (stereo not shown)
Out: 7.10

* * *

- measured-on: UniProt P29274
- assay-info: binding affinity IC50 to hA2A receptor ([3H]-CGS 21680 filter binding, Effect Embodiment 2)
- assay-setup: A2A membrane, [3H]-CGS 21680 (final 25 nM), 90 minutes at 25° C.
- Method: Evaluation experiment of the binding affinity IC50 of the compounds 1-61 to hA2A receptor 40 uL of ULTIMA GOLD scintillation fluid was added to each well and the CPM (count per minute) value was read by TopCount.
Give measured IC50 for each item. Keep answers brief.
Phrase the answer as number then unit, nothing more needed.

In: I'm curious: which IC50 was measured for N#Cc1ccc(CC2OC(=O)c3c(-c4ccco4)nc(N)nc32)cc1 (centres unmarked) tested on UniProt P29274?
Out: 249 nM

In: Param readout = IC50; param system = UniProt P29274; param query = Cc1ccc(-c2nc(N)nc3c2C(=O)OC3Cc2ccc(F)cc2F)o1 (centres unmarked) [Compound 26] ; response: value
Out: 32.1 nM

In: # get_value(readout= IC50, system= UniProt P29274) for "Cn1c(=O)n(Cc2ccc(F)cc2F)c2nc(N)nc(-c3ccco3)c21"
Out: 30.1 nM

In: State its IC50 on UniProt P29274: Cc1ccc(-c2nc(N)nc3c2C(=O)OC3Cc2ccc(F)cc2C(F)(F)F)o1 (centres unmarked)
Out: 19.9 nM

In: // map Cc1ccc(-c2nc(N)nc3c2C(=O)N(C)C3Cc2ccccc2F)o1 (centres unmarked) to recorded IC50 (system: UniProt P29274)
Out: 29.3 nM

In: Lookup: IC50 / UniProt P29274 / Cc1ccc(-c2nc(N)nc3c2C(=O)OC3Cc2ccccc2OC(F)F)o1 (centres unmarked)
Out: 128 nM

In: Please state recorded IC50 (tested on UniProt P29274) of Nc1nc(-c2ccccn2)c2c(n1)C(Cc1ccccc1)OC2=O (centres unmarked)
Out: 918 nM

In: What value of IC50 on UniProt P29274 does Nc1nc(-c2ccco2)c2c(n1)C(Cc1ccccc1Cl)OC2=O (centres unmarked) have?
Out: 32.1 nM

In: What is its IC50 for UniProt P29274? Entry: "Cn1c(=O)n(Cc2ccccc2F)c2nc(N)nc(-c3ccco3)c21"
Out: 43.5 nM

In: Can you look up IC50 on UniProt P29274 for Nc1nc(-c2ccco2)c2c(n1)C(Cc1ccc(Cl)c(F)c1)OC2=O (centres unmarked) ?
Out: 99.8 nM

In: Item: Nc1nc(-c2ccco2)c2c(n1)C(Cc1cccc(Cl)c1F)OC2=O (centres unmarked) Test system: UniProt P29274 Read-out: IC50 Value: ?
Out: 73.7 nM

In: Provide the documented IC50 with UniProt P29274 as the system for Cc1ccc(-c2nc(N)nc3c2C(=O)N(C)C3Cc2ccccc2OC(F)(F)F)o1 (centres unmarked)
Out: 56.2 nM

In: Short answer please: IC50, UniProt P29274, entry Nc1nc(-c2ccco2)c2c(n1)C(Cc1ccccc1F)OC2=O (centres unmarked)
Out: 14.7 nM

In: Short answer please: IC50, UniProt P29274, entry Cc1ccc(-c2nc(N)nc3c2C(=O)OC3Cc2ccc(F)cc2F)o1 (centres unmarked) [Compound 42]
Out: 87.4 nM

In: So what IC50 did "Cc1ccc(-c2nc(N)nc3c2C(=O)N(C)C3=Cc2ccc(F)cc2C(F)(F)F)o1" get with UniProt P29274?
Out: 3.4 nM

In: Enter reported IC50 observed with UniProt P29274 for "Nc1nc(-c2ccco2)c2c(n1)[C@@H](Cc1ccccc1)OC2"
Out: 157 nM

In: Form: Entry = Nc1nc(-c2ccco2)c2c(n1)C(Cc1ccccc1OC(F)(F)F)OC2=O (centres unmarked) | System = UniProt P29274 | IC50 = ____
Out: 3.9 nM

In: So what IC50 did Nc1nc(-c2ccco2)c2c(n1)C(Cc1ccc(F)cc1Cl)OC2=O (centres unmarked) get with UniProt P29274?
Out: 114 nM

In: Please provide the recorded IC50 for Cc1ccc(-c2nc(N)nc3c2C(=O)OC3Cc2cc(Cl)ccc2F)o1 (centres unmarked) , tested on UniProt P29274.
Out: 94 nM

In: Record lookup: for UniProt P29274, what IC50 belongs to Cc1ccc(-c2nc(N)nc3c2C(=O)OC3Cc2ccccc2F)o1 (centres unmarked) ?
Out: 21 nM

* * *

Please provide measured log10 of IC50 for the entries that follow.
- measured-on: hA2A receptor (Homo sapiens (Human))
- assay-info: binding affinity IC50 to hA2A receptor ([3H]-CGS 21680 filter binding, Effect Embodiment 2)
- assay-setup: A2A membrane, [3H]-CGS 21680 (final 25 nM), 90 minutes at 25° C.
log10 IC50, nM

In: Lab note: need log10 of IC50 for Nc1nc(-c2ccco2)c2c(n1)C(Cc1ccc(Cl)cc1F)OC2=O (stereo not shown) on hA2A receptor (Homo sapiens (Human)), anyone have it?
Out: 1.59

In: Lab note: need log10 of IC50 for NC(=O)c1ccc(CC2OC(=O)c3c(-c4ccco4)nc(N)nc32)cc1 (stereo not shown) on hA2A receptor (Homo sapiens (Human)), anyone have it?
Out: 2.34

In: Query log10 of IC50 on hA2A receptor (Homo sapiens (Human)) for Nc1nc(-c2ccco2)c2c(n1)C(Cc1ccc(OC(F)(F)F)cc1)OC2=O (stereo not shown)
Out: 2.03

In: Which log10 of IC50 is reported with hA2A receptor (Homo sapiens (Human)) for this entry: Cc1ccc(-c2nc(N)nc3c2C(=O)OC3Cc2ccccc2C(F)(F)F)o1 (stereo not shown) ?
Out: 1.05

In: # value lookup — system hA2A receptor (Homo sapiens (Human)), readout log10 of IC50, item Cc1ccc(-c2nc(N)nc3c2C(=O)N(C)C3Cc2ccncc2)o1 (stereo not shown)
Out: 2.25

In: API: value(readout= log10 of IC50, system= hA2A receptor (Homo sapiens (Human)), query= Nc1nc(-c2ccco2)c2c(n1)C(Cc1ccccc1)OC2=O (stereo not shown) )
Out: 1.60

In: Give recorded log10 of IC50 with hA2A receptor (Homo sapiens (Human)) for the following molecule: Nc1nc(-c2ccco2)c2c(n1)C(Cc1ccc(C(F)(F)F)cc1)OC2=O (stereo not shown)
Out: 2.44

In: Which log10 of IC50 is reported with hA2A receptor (Homo sapiens (Human)) for this entry: N#Cc1ccc(CC2OC(=O)c3c(-c4ccco4)nc(N)nc32)cc1F (stereo not shown) ?
Out: 2.20

In: What log10 of IC50 appears in the records for this molecule with hA2A receptor (Homo sapiens (Human))? "Cc1ccc(-c2nc(N)nc3c2C(=O)N(C)C3=Cc2ccccc2F)o1"
Out: 0.86

In: Reported log10 of IC50 for hA2A receptor (Homo sapiens (Human)), given CN1C(=O)c2c(-c3ccco3)nc(N)nc2C1Cc1ccc(F)cc1F (stereo not shown) ?
Out: 1.21

In: # returns recorded log10 of IC50 (system: hA2A receptor (Homo sapiens (Human))) for "Cc1ccc(-c2nc(N)nc3c2C(=O)N(C)C3=Cc2ccccc2OC(F)(F)F)o1"
Out: 0.56

In: Request body: readout log10 of IC50, system hA2A receptor (Homo sapiens (Human)), query CN1C(=O)c2c(-c3ccco3)nc(N)nc2C1Cc1ccccc1F (stereo not shown) . Return the value.
Out: 1.81

In: Record Cc1ccc(-c2nc(N)nc3c2C(=O)OC3(C)Cc2ccccc2F)o1 (stereo not shown) : what is its log10 of IC50 with hA2A receptor (Homo sapiens (Human))?
Out: 3.00

In: Form field - read-out: log10 of IC50; system: hA2A receptor (Homo sapiens (Human)); submitted item: "Cc1ccc(-c2nc(N)nc3c2C(=O)N(C)/C3=C\c2ccccc2C(F)(F)F)o1"
Out: 0.67

In: What value of log10 of IC50 on hA2A receptor (Homo sapiens (Human)) does "Cc1ccc(-c2nc(N)nc3c2C(=O)N(C)C3=Cc2ccc(F)cc2F)o1" have?
Out: 1.12

In: Notebook entry, hA2A receptor (Homo sapiens (Human)) assay: log10 of IC50 of Nc1nc(-c2ccc(Br)o2)c2c(n1)C(Cc1ccccc1OC(F)(F)F)OC2=O (stereo not shown) = ?
Out: 1.83

In: Reported log10 of IC50 for hA2A receptor (Homo sapiens (Human)), given Cc1ccc(-c2nc(N)nc3c2C(=O)OC3Cc2c(F)cccc2Cl)o1 (stereo not shown) ?
Out: 1.58

In: What log10 of IC50 appears in the records for this molecule with hA2A receptor (Homo sapiens (Human))? Cc1ccc(-c2nc(N)nc3c2C(=O)N(C)C3Cc2ccccc2C(F)(F)F)o1 (stereo not shown)
Out: 1.54

In: Quick check: log10 of IC50 on hA2A receptor (Homo sapiens (Human)), item Cc1ccc(-c2nc(N)nc3c2C(=O)N(C)C3Cc2cc[n+]([O-])cc2)o1 (stereo not shown) ?
Out: 1.32

In: Param readout = log10 of IC50; param system = hA2A receptor (Homo sapiens (Human)); param query = Nc1nc(-c2ccco2)c2c(n1)C(Cc1cc(C(F)(F)F)cc(C(F)(F)F)c1)OC2=O (stereo not shown) ; response: value
Out: 2.48

In: Notebook: pull reported log10 of IC50 for hA2A receptor (Homo sapiens (Human)), entry "CN1C(=O)c2c(nc(N)nc2-c2ccco2)C1=Cc1ccc(F)cc1F"
Out: 0.94

In: # returns recorded log10 of IC50 (system: hA2A receptor (Homo sapiens (Human))) for "Nc1nc(-c2ccco2)c2c(n1)[C@H](Cc1ccccc1)OC2"
Out: 2.44

In: Write down the reported log10 of IC50 of Nc1nc(-c2ccco2)c2c(n1)C(Cc1c(F)cccc1F)OC2=O (stereo not shown) , test system: hA2A receptor (Homo sapiens (Human)).
Out: 1.67

In: API: value(readout= log10 of IC50, system= hA2A receptor (Homo sapiens (Human)), query= CS(=O)(=O)c1ccc(CC2OC(=O)c3c(-c4ccco4)nc(N)nc32)cc1 (stereo not shown) )
Out: 2.18

In: Missing value: log10 of IC50, hA2A receptor (Homo sapiens (Human)), entry Cc1ccc(-c2nc(N)nc3c2C(=O)N(C)C3Cc2ccc(F)cc2F)o1 (stereo not shown) . Fill in?
Out: 1.51
